# MEASUREMENT_TARGET: T1, Clostridium difficile toxin A (TcdA) (Clostridium difficile, UniProt P16154 1-2710)
# T1 construct: mature; also called full-length TcdA
# T1 sequence (P16154 whole entry): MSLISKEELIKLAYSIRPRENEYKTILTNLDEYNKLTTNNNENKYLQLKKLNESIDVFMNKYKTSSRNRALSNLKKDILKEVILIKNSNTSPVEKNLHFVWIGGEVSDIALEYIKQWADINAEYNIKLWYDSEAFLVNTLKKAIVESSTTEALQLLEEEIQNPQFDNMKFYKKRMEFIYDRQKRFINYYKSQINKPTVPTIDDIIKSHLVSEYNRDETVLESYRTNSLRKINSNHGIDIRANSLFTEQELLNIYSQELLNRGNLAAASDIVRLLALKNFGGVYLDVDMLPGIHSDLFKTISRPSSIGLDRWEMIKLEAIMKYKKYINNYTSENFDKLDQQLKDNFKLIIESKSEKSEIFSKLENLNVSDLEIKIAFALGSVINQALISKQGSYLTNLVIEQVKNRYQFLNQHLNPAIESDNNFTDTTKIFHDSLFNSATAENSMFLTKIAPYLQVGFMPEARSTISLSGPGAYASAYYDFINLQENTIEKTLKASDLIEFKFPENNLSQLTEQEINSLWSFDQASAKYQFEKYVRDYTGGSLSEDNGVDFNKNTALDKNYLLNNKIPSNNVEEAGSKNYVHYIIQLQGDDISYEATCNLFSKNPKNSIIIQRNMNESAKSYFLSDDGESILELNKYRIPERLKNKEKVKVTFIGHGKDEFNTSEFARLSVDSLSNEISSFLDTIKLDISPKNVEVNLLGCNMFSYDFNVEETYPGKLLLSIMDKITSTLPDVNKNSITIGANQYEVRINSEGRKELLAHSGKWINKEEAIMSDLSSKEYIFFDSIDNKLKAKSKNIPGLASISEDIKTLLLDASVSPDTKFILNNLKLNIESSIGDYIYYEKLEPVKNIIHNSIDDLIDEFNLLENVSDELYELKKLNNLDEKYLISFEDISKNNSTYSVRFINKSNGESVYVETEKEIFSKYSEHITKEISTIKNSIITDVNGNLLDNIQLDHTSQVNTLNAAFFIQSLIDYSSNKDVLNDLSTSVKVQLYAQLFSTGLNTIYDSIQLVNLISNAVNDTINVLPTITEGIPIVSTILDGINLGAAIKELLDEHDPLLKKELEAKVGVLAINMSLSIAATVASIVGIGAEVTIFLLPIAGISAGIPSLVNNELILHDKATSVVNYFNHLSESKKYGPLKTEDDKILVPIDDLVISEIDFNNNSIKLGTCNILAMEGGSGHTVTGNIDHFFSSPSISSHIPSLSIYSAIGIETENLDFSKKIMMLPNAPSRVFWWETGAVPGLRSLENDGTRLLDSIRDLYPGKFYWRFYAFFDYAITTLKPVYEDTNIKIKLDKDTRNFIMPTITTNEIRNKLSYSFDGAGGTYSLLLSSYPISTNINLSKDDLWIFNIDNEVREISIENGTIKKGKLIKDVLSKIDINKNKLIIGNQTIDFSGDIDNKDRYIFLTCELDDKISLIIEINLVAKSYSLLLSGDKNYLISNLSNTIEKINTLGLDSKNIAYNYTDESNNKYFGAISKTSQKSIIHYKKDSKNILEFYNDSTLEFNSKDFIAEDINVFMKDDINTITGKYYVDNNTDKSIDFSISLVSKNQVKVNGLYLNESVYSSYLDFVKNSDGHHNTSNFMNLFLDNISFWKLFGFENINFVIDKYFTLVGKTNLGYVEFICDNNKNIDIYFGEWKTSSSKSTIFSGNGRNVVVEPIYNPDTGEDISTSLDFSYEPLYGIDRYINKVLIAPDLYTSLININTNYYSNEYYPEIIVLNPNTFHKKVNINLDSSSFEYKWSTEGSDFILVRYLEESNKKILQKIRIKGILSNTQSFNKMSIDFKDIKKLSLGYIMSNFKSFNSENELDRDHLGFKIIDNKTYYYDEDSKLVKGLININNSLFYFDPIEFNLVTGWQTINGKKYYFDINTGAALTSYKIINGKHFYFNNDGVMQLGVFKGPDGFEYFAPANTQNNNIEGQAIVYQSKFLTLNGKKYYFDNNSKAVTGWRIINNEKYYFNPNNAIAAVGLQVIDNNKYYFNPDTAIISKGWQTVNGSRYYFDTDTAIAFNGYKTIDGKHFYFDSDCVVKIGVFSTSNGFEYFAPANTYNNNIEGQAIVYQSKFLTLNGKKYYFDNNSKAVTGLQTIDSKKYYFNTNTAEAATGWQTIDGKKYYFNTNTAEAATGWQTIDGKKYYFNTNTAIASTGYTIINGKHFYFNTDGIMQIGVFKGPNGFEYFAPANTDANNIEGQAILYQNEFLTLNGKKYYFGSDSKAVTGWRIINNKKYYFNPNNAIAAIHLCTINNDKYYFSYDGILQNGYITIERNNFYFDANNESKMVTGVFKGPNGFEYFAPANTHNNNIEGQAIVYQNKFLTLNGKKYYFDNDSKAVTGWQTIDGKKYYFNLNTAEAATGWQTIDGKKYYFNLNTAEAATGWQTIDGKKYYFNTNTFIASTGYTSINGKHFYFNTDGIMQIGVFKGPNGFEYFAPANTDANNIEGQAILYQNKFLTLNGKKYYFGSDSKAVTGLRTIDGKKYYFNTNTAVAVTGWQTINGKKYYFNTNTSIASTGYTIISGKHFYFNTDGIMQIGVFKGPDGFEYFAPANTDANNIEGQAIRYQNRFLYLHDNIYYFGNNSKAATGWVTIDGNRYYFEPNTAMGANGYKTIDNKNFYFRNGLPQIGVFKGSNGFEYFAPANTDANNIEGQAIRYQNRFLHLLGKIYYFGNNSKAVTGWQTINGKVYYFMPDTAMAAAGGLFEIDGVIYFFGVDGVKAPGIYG
# PROCEDURE_SUMMARY: SPR (Biacore 3000), VHH over immobilized TcdA; binding free energy difference relative to parent VHH
RESULT_TYPE: ΔΔG (kcal/mol)
Please reply with the bare figure in kcal/mol and do not write the unit itself.

Use the examples below as a reference point.
- A26.8-N109R (VHH, not shown: small tags and cut ends) VHH: QVKLEESGGGLVQAGGSLRLSCAASERTFSRYPVAWFRQAPGAEREFVAVISSTGTSTYYADSVKGRFTISRDNAKVTVYLQMNNLKREDTAVYFCAVNSQRTRLQDPREYDYWGQGTQVTVSS: -0.17
- A26.8-T56R, T103M (VHH, not shown: small tags and cut ends) VHH: QVKLEESGGGLVQAGGSLRLSCAASERTFSRYPVAWFRQAPGAEREFVAVISSTGRSTYYADSVKGRFTISRDNAKVTVYLQMNNLKREDTAVYFCAVNSQRMRLQDPNEYDYWGQGTQVTVSS: -0.79
- A26.8-T56R, Q101K, T103M (VHH, not shown: small tags and cut ends) VHH: QVKLEESGGGLVQAGGSLRLSCAASERTFSRYPVAWFRQAPGAEREFVAVISSTGRSTYYADSVKGRFTISRDNAKVTVYLQMNNLKREDTAVYFCAVNSKRMRLQDPNEYDYWGQGTQVTVSS: -1.1
- A26.8-Q101K,T103R (VHH, not shown: small tags and cut ends) VHH: QVKLEESGGGLVQAGGSLRLSCAASERTFSRYPVAWFRQAPGAEREFVAVISSTGTSTYYADSVKGRFTISRDNAKVTVYLQMNNLKREDTAVYFCAVNSKRRRLQDPNEYDYWGQGTQVTVSS: -0.87
- A26.8 VHH mutant Q106F (VHH, not shown: small tags and cut ends) VHH: QVKLEESGGGLVQAGGSLRLSCAASERTFSRYPVAWFRQAPGAEREFVAVISSTGTSTYYADSVKGRFTISRDNAKVTVYLQMNNLKREDTAVYFCAVNSQRTRLFDPNEYDYWGQGTQVTVSS: 3.28
- A26.8 VHH mutant S53R (VHH, not shown: small tags and cut ends) VHH: QVKLEESGGGLVQAGGSLRLSCAASERTFSRYPVAWFRQAPGAEREFVAVISRTGTSTYYADSVKGRFTISRDNAKVTVYLQMNNLKREDTAVYFCAVNSQRTRLQDPNEYDYWGQGTQVTVSS: 1.45
- A26.8-T103M (VHH, not shown: small tags and cut ends) VHH: QVKLEESGGGLVQAGGSLRLSCAASERTFSRYPVAWFRQAPGAEREFVAVISSTGTSTYYADSVKGRFTISRDNAKVTVYLQMNNLKREDTAVYFCAVNSQRMRLQDPNEYDYWGQGTQVTVSS: -0.18
- A26.8 VHH mutant D107R (VHH, not shown: small tags and cut ends) VHH: QVKLEESGGGLVQAGGSLRLSCAASERTFSRYPVAWFRQAPGAEREFVAVISSTGTSTYYADSVKGRFTISRDNAKVTVYLQMNNLKREDTAVYFCAVNSQRTRLQRPNEYDYWGQGTQVTVSS: 0.01

Exercise: Which ΔΔG reading was recorded for the binder A26.8 VHH mutant R104W (VHH, not shown: small tags and cut ends) VHH: QVKLEESGGGLVQAGGSLRLSCAASERTFSRYPVAWFRQAPGAEREFVAVISSTGTSTYYADSVKGRFTISRDNAKVTVYLQMNNLKREDTAVYFCAVNSQRTWLQDPNEYDYWGQGTQVTVSS ?
Key: 1.27
